# experimental-target: T1, kappa opioid receptor (the kOR), mouse, with C-terminal GFP (the kOR-EGFP) (mouse), P33534
# T1 chain: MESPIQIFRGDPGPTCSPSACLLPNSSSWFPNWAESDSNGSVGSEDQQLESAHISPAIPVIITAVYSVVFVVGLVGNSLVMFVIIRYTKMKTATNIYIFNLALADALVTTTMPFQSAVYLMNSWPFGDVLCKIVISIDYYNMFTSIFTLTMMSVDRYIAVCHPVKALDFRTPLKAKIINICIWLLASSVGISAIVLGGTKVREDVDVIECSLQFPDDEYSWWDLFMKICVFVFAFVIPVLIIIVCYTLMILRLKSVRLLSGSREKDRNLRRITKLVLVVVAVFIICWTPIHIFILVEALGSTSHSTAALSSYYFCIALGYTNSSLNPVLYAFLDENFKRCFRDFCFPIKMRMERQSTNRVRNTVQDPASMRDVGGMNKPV
Ends that are not written are not given here.
endpoint-name: Ki (µM)
Numeric answer only, unit µM assumed.

Please report the measured Ki for GLPVCGETCVGGTCNTPGCKCSWPVCTRN (not fully specified (bridges); ends and bridges not checked) [[T20K]-kalata B1]
2.7
